# Target Entity: human mGluR4 (Homo sapiens, UniProt Q14833)
# Construct: expressed in transfected cells; host or cells: Chinese Hamster Ovary (CHO) cells
# Sequence (Q14833 33-912): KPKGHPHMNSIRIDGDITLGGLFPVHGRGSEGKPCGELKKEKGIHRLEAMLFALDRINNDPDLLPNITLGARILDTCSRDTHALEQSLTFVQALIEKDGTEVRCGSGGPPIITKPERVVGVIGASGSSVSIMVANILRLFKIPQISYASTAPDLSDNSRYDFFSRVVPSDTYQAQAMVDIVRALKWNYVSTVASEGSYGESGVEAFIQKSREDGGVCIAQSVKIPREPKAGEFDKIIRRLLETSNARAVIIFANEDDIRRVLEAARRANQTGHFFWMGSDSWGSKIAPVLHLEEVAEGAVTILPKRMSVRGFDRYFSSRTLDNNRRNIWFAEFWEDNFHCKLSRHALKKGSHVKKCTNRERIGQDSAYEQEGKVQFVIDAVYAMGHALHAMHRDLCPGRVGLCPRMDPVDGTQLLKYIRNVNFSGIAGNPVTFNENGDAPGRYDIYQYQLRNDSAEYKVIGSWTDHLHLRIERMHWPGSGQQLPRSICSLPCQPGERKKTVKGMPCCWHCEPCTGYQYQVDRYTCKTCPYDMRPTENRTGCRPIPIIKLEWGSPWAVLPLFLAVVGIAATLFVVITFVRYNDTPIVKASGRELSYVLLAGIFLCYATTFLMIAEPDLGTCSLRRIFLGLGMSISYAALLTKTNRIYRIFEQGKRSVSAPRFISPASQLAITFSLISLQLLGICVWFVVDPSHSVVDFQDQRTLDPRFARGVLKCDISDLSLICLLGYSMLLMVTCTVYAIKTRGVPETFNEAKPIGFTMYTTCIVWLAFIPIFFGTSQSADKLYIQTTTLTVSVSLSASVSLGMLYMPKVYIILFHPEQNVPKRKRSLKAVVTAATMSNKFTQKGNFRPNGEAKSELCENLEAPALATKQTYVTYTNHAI
# Assay Protocol: human mGluR4 potentiation assay, CHO cells, Fluo-4 calcium fluorescence, agonist EC20
# Assay type: cell-based
# Run Parameters: CHO; maximum extent of potentiation, human mGluR4; read-out: GluMax
Counter-ions that a name gives are not always drawn.
# Lookup of reported Emax keyed by entry
Attribute Measured: Emax (%)

| Compound | Test Value |
| --- | --- |
| O=S(=O)(Nc1ccccc1Cl)c1ccc2[nH]c(-c3ccsc3)nc2c1 | 111 |
| O=S(=O)(Nc1ccccc1Cl)c1ccc2[nH]c(-c3ccc(Cl)o3)nc2c1 | 76 |
| O=S(=O)(Nc1ccccc1Cl)c1ccc2[nH]c(-c3cccnn3)nc2c1 [Example 8, TFA salt] | 204 |
| O=S(=O)(Nc1ccccc1Cl)c1ccc2[nH]c(-c3cccc4c3OCO4)nc2c1 | 49 |
| O=S(=O)(Nc1ccccc1F)c1ccc2[nH]c(-c3ccsc3)nc2c1 | 42 |

* * *

# Target Entity: human mGluR4 (Homo sapiens, UniProt Q14833)
# Construct: expressed in transfected cells; host or cells: Chinese Hamster Ovary (CHO) cells
# Assay Protocol: human mGluR4 potentiation assay, CHO cells, Fluo-4 calcium fluorescence, agonist EC20
# Type: cell-based
# Run Parameters: CHO; maximum extent of potentiation, human mGluR4; read-out: GluMax
Where a name gives a salt, the structure may show the parent alone.
We use 90% as the dividing line for Emax: on or above the line is 1.0, below is 0.0.

| Compound | Label Value |
| --- | --- |
| O=S(=O)(Nc1ccccc1Cl)c1ccc2[nH]c(C3CCCCO3)nc2c1 (centres unmarked) [Example 46] | 1.0 |
| O=S(=O)(Nc1ccccc1Cl)c1ccc2[nH]c(-c3ncc[nH]3)nc2c1 [Example 27] | 0.0 |
| O=S(=O)(Nc1ccccc1Cl)c1ccc2[nH]c(-c3c(F)cccc3Cl)nc2c1 [Example 22] | 0.0 |
| O=S(=O)(Nc1ccccc1Cl)c1ccc2[nH]c(-c3cccc(F)n3)nc2c1 [Example 13] | 1.0 |
| O=S(=O)(Nc1ccc(F)cc1F)c1ccc2[nH]c(-c3ccccc3)nc2c1 [Example 36] | 0.0 |
| O=S(=O)(Nc1ccccc1F)c1ccc2[nH]c(-c3nccs3)nc2c1 [Example 40] | 1.0 |
| O=S(=O)(Nc1ccccc1F)c1ccc2[nH]c(-c3ccccc3)nc2c1 [Example 17, TFA salt] | 0.0 |
| O=S(=O)(NC1CCCC1)c1ccc2[nH]c(-c3ccccc3)nc2c1 [Example 18, TFA salt] | 1.0 |

* * *

# Target Entity: human mGluR4 (Homo sapiens)
# Construct: expressed in transfected cells; host or cells: Chinese Hamster Ovary (CHO) cells
# Assay Protocol: human mGluR4 potentiation assay, CHO cells, Fluo-4 calcium fluorescence, agonist EC20
# Assay type: cell-based
# Run Parameters: CHO; maximum extent of potentiation, human mGluR4; read-out: GluMax
Where a name gives a salt, the structure may show the parent alone.
# Lookup of reported Emax keyed by entry

| Compound | Emax [%] |
| --- | --- |
| Cc1ccc(-c2nc3cc(S(=O)(=O)Nc4ccccc4Cl)ccc3[nH]2)o1 [Example 29] | 52 |
| O=S(=O)(Nc1ccccc1Cl)c1ccc2[nH]c(-c3cccnc3)nc2c1 [Example 5] | 84 |
| O=S(=O)(Nc1ccccc1Br)c1ccc2[nH]c(-c3ccccc3)nc2c1 [Example 1] | 60 |
| CC1CCN(S(=O)(=O)c2ccc3[nH]c(-c4ccccn4)nc3c2)CC1 [Example 45] | 104 |
| O=S(=O)(Nc1ccccc1Cl)c1ccc2[nH]c(-c3ccc(C(F)(F)F)o3)nc2c1 [Example 26] | 68 |
| O=S(=O)(Nc1ccccc1Cl)c1ccc2[nH]c(-c3ccno3)nc2c1 [Example 43] | 69 |
| N#Cc1ccc(NS(=O)(=O)c2ccc3[nH]c(-c4ccccc4)nc3c2)cc1 [Example 19, TFA salt] | 24 |
| O=S(=O)(Nc1ccccc1F)c1ccc2[nH]c(-c3ccccn3)nc2c1 [Example 33] | 246 |
| O=S(=O)(Nc1ccc(F)cc1F)c1ccc2[nH]c(-c3ccccn3)nc2c1 [Example 51] | 252 |
| O=S(=O)(Nc1ccccc1Cl)c1ccc2[nH]c(C3CCCCC3)nc2c1 [Example 4] | 141 |
| O=S(=O)(Nc1ccc(F)cc1F)c1ccc2[nH]c(-c3cccc(F)n3)nc2c1 [Example 52] | 226 |
| O=S(=O)(Nc1ccc(F)cc1F)c1ccc2[nH]c(-c3ccsc3)nc2c1 [Example 42] | 50 |
| O=S(=O)(Nc1ccccc1Cl)c1ccc2[nH]c(-c3ccccn3)nc2c1 [Example 3] | 226 |
| O=S(=O)(Nc1cccnc1)c1ccc2[nH]c(-c3ccccc3)nc2c1 [Example 16, bis TFA salt] | 41 |
| O=S(=O)(Nc1ccccc1Cl)c1ccc2[nH]c(-c3c(F)cccc3F)nc2c1 [Example 24] | 160 |
| CCc1ccc(NS(=O)(=O)c2ccc3[nH]c(-c4ccsc4)nc3c2)cc1 [Example 48] | 85 |
| O=S(=O)(Nc1ccccc1Cl)c1ccc2[nH]c(-c3cscn3)nc2c1 [Example 10, bis TFA salt] | 169 |
| O=S(=O)(Nc1ccccc1Cl)c1ccc2[nH]c(-c3cnccn3)nc2c1 [Example 7] | 149 |
| O=S(=O)(Nc1ccc(F)cc1F)c1ccc2[nH]c(-c3nccs3)nc2c1 [Example 47] | 147 |
| O=S(=O)(Nc1ccccc1Cl)c1ccc2[nH]c(-c3cccs3)nc2c1 [Example 9, TFA salt] | 103 |
| O=S(=O)(Nc1ccccc1Cl)c1ccc2[nH]c(-c3ccncn3)nc2c1 [Example 11] | 148 |
| O=S(=O)(Nc1ccccc1Cl)c1ccc2[nH]c(-c3ccccc3F)nc2c1 [Example 21] | 64 |
| O=S(=O)(Nc1ccccc1Cl)c1ccc2[nH]c(-c3ccccc3)nc2c1 [Example 2, TFA salt] | 77 |
| Cn1ccnc1-c1nc2cc(S(=O)(=O)Nc3ccccc3Cl)ccc2[nH]1 [Example 41] | 83 |
| Cc1cc(-c2nc3cc(S(=O)(=O)Nc4ccccc4Cl)ccc3[nH]2)on1 [Example 35] | 87 |
| O=S(=O)(Nc1ccccc1Cl)c1ccc2[nH]c(-c3cccc(Cl)n3)nc2c1 [Example 12] | 98 |
| O=S(=O)(Nc1c(F)cccc1F)c1ccc2[nH]c(-c3ccccc3)nc2c1 [Example 28] | 38 |
| O=S(=O)(Nc1ccccc1Cl)c1ccc2[nH]c(-c3ccco3)nc2c1 [Example 25] | 96 |
| O=S(=O)(Nc1ccccc1Cl)c1ccc2[nH]c(-c3nccs3)nc2c1 [Example 14] | 194 |
| O=S(=O)(Nc1ccccc1Cl)c1ccc2[nH]c(-c3ccccc3C(F)(F)F)nc2c1 [Example 23] | 36 |
| O=S(=O)(Nc1ccccc1F)c1ccc2[nH]c(-c3ccncn3)nc2c1 [Example 39] | 156 |
| O=S(=O)(Nc1ccccc1F)c1ccc2[nH]c(-c3cnccn3)nc2c1 [Example 37] | 118 |
| CN(c1ccccc1F)S(=O)(=O)c1ccc2[nH]c(-c3ccccn3)nc2c1 [Example 50] | 61 |
| O=S(=O)(Nc1ccccc1Cl)c1ccc2[nH]c(-c3cc(Br)no3)nc2c1 [Example 34] | 149 |
| CN1CCCCC1c1nc2cc(S(=O)(=O)Nc3ccccc3Cl)ccc2[nH]1 (centres unmarked) [Example 53] | 59 |

* * *

# Target Entity: human mGluR4 (Homo sapiens, UniProt Q14833)
# Construct: expressed in transfected cells; host or cells: Chinese Hamster Ovary (CHO) cells
# Assay Protocol: human mGluR4 potentiation assay, CHO cells, Fluo-4 calcium fluorescence, agonist EC20
# Type: cell-based
# Run Parameters: CHO; maximum extent of potentiation, human mGluR4; read-out: GluMax

| Smiles Structure | Emax, % |
| --- | --- |
| O=S(=O)(Nc1ccccc1Cl)c1ccc2[nH]c(-c3ncccc3F)nc2c1 | 192 |
| O=S(=O)(Nc1ccccc1Cl)c1ccc2[nH]c(-c3ncc(F)cc3F)nc2c1 | 123 |
| Cc1nc[nH]c1-c1nc2cc(S(=O)(=O)Nc3ccccc3Cl)ccc2[nH]1 | 36 |

* * *

# Target Entity: human mGluR4 (Homo sapiens, UniProt Q14833)
# Assay Protocol: human mGluR4 potentiation assay, CHO cells, Fluo-4 calcium fluorescence, agonist EC20
# Run Parameters: potentiation of human mGluR4 response to EC20 agonist; read-out: hEC50
pEC50: −log10 of the molar value. Counter-ions that a name gives are not always drawn.

| Compound | Relation Qualifier | pEC50 |
| --- | --- | --- |
| O=S(=O)(Nc1ccccc1Br)c1ccc2[nH]c(-c3ccccc3)nc2c1 | = | 6.30 |
| O=S(=O)(Nc1ccccc1F)c1ccc2[nH]c(-c3nccs3)nc2c1 | = | 6.12 |
| O=S(=O)(Nc1cccnc1)c1ccc2[nH]c(-c3ccccc3)nc2c1 [Example 16, bis TFA salt] | = | 5.23 |
| O=S(=O)(Nc1ccccc1Cl)c1ccc2[nH]c(-c3cccc4c3OCO4)nc2c1 | = | 6.76 |
| O=S(=O)(Nc1ccccc1Cl)c1ccc2[nH]c(-c3cnccn3)nc2c1 | = | 5.83 |
| O=S(=O)(Nc1ccccc1Cl)c1ccc2[nH]c(-c3ccccc3C(F)(F)F)nc2c1 | = | 5.03 |
| O=S(=O)(Nc1ccccc1Cl)c1ccc2[nH]c(-c3ncc(F)cc3F)nc2c1 | = | 6.33 |
| CN1CCCCC1c1nc2cc(S(=O)(=O)Nc3ccccc3Cl)ccc2[nH]1 (stereo not drawn) | < | 5.00 |
| O=S(=O)(Nc1ccccc1Cl)c1ccc2[nH]c(-c3cccc(F)n3)nc2c1 | = | 6.95 |
| O=S(=O)(Nc1ccccc1Cl)c1ccc2[nH]c(-c3ccc(C(F)(F)F)o3)nc2c1 | = | 6.48 |
| Cc1nc[nH]c1-c1nc2cc(S(=O)(=O)Nc3ccccc3Cl)ccc2[nH]1 | = | 4.87 |
| O=S(=O)(Nc1ccc(F)cc1F)c1ccc2[nH]c(-c3ccccn3)nc2c1 | = | 7.00 |
| O=S(=O)(Nc1ccccc1Cl)c1ccc2[nH]c(-c3ccc(Cl)o3)nc2c1 | = | 6.70 |
| O=S(=O)(Nc1ccccc1Cl)c1ccc2[nH]c(-c3cc(Br)no3)nc2c1 | = | 5.96 |
| O=S(=O)(Nc1ccc(F)cc1F)c1ccc2[nH]c(-c3nccs3)nc2c1 | = | 6.15 |
